# TARGET DESC: NGF (nerve growth factor) (Homo sapiens, UniProt P01138 P01138:122-241)
# Sequence (P01138 122-241, one chain of several): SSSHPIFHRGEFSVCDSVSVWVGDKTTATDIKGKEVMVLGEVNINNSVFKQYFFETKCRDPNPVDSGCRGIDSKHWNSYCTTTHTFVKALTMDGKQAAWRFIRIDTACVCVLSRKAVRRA
# ASSAY NAME: cell_activity; neurite; TF-1 0.056
# EXPERIMENTAL SETUP: tags: R&D Systems; chain copies: 2
MEASURED PARAMETER: IC50 (nM)
Write the number in nM without appending the unit.

Which IC50 value is on record for GGGUCCUGGAUAAGAGUUUCCGUCUCGUAUCCUGUUACCC (ssRNA, as 82(25) except 2'-OMe A10,A15,A29,A37) [SEQ ID NO: 82(48)] ? 0.252
